Consider the following binders and their measured kon readings.
SYSTEM_UNDER_TEST: T1, human LAG3 (form used in Octet, Biacore and HDX-MS not given) (human, UniProt P18627 23-450, limits assumed)
T1 sequence (looked up): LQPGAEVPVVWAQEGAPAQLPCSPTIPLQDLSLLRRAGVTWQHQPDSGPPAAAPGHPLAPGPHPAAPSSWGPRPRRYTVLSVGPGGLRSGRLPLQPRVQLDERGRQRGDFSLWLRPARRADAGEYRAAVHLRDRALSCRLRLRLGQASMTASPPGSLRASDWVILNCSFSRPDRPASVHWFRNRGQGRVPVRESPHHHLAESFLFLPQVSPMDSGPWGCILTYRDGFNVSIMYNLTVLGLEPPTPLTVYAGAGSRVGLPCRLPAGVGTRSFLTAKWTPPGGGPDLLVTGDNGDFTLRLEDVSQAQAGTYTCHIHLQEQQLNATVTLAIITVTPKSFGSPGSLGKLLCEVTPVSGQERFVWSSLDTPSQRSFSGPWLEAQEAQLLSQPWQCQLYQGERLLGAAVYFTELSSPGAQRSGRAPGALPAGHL
PROCEDURE_SUMMARY: BLI (Octet), 1:1 fit
Please state the figure in M⁻¹ s⁻¹; there is no need to write the unit.

The following binders have reported results that may help.
IN: Given the binder hu029.40 (antibody, V domains shown, humanized from 029c) VH: QVQLVESGGGLVKPGGSLRLSCAASGFTFSSYAMSWVRQAPGKRLEWVAYVTSGGDYIYYADTVKGRFTISRDDAKNSLYLQMNSLRAEDTAMYYCTRVAYDYEWYFDVWGQGALVTVSS VL: DIQMTQSPSSVSTSVGDRVTITCKASQDVTTAVAWYQQKPGKAPKLLIYSASYRYTGVPSRFSGSGSGTDFTFTISSVQPEDFATYYCQQHDSSPWTFGQGTKLEIK , write its reported kon.
OUT: 4.68e+06

IN: Given the binder 021c (antibody, human IgG4, V domains shown, human IgG4 S228P / kappa chimeric antibody; also called chimeric antibody 021; not shown: human kappa light chain constant region (pcDNA3.4-hIgGk vector)) VH: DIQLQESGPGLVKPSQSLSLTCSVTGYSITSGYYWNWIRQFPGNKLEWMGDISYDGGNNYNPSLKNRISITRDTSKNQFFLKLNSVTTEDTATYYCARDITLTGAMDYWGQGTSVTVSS VL: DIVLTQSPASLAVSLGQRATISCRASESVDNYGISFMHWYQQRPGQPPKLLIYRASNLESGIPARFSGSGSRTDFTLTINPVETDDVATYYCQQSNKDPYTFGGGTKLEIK , write its reported kon.
OUT: 508000

Let us examine a further case.
IN: Given the binder hu021.279 (antibody, V domains shown, humanized from 021c; also called hu21.279) VH: QIQLQESGPGLVKPGQTLSLTCTVSGYSITSGYYWTWIRQHPGNKLEWIGDISYDAGNNYNPSLKNRITISRDTSKNQFSLKLSSVTAEDTATYYCARDITLTGAMDYWGQGTTVTVSS VL: EIVLTQSPATLSLSPGERATLSCRASESVDNYGISFMHWYQQKPGQAPRLLIYRASNLESGIPARFSGSGSGTDFTLTISSLEPEDFAVYYCQQSNKDPYTFGQGTKLEIK , write its reported kon.
OUT: 877000
